system: PaR5: Pseudomonas aeruginosa; assay: Antibiogram by the disk diffusion technique; assay type: cell-based; details: PaR5; Table I1
Assay Endpoint: Diameter (mm)
Your answer should be a plain number; it is taken to be in mm.

For orientation, consider the following solved cases.
CC1(C)S[C@@H]2[C@H](NC(=O)[C@H](C(=O)O)c3ccsc3)C(=O)N2[C@H]1C(=O)O
32
C[C@@H](O)[C@H]1C(=O)N2C(C(=O)O)=C(S[C@@H]3CN[C@H](C(=O)N(C)C)C3)[C@H](C)[C@H]12
34
C[C@@H]1O[C@@H]1P(=O)(O)O
30

The measured Diameter that CCN[C@@H]1C[C@H](N)[C@@H](O[C@H]2OC(CN)=CC[C@H]2N)[C@H](O)[C@H]1O[C@H]1OC[C@](C)(O)[C@H](NC)[C@H]1O showed for PaR5: Pseudomonas aeruginosa is 28

With PaR5: Pseudomonas aeruginosa as the test system, NC[C@H]1O[C@H](O[C@H]2[C@H](O)[C@@H](O[C@H]3O[C@H](CO)[C@@H](O)[C@H](N)[C@H]3O)[C@H](N)C[C@@H]2N)[C@H](N)C[C@@H]1O showed Diameter of 28

Tested on PaR5: Pseudomonas aeruginosa: C[C@@H](O)[C@H]1C(=O)N2C(C(=O)O)=C(SCCN=CN)C[C@H]12 . Observed Diameter: 25

The compound CC1COc2c(N3CCN(C)CC3)c(F)cc3c(=O)c(C(=O)O)cn1c23 (stereo not shown) on PaR5: Pseudomonas aeruginosa: Diameter was 11

So the reported Diameter for CCn1cc(C(=O)O)c(=O)c2cc(F)c(N3CCNCC3)cc21 , on PaR5: Pseudomonas aeruginosa, turned out to be 17

# Diameter measured on PaR5: Pseudomonas aeruginosa for item CO[C@H]1/C=C/O[C@@]2(C)Oc3c(C)c(O)c4c(O)c(c(/C=N/N5CCN(C)CC5)c(O)c4c3C2=O)NC(=O)/C(C)=C\C=C\[C@H](C)[C@H](O)[C@@H](C)[C@@H](O)[C@@H](C)[C@H](OC(C)=O)[C@@H]1C = 13

Entry CN(C)c1ccc(O)c2c1C[C@H]1C[C@H]3[C@H](N(C)C)C(O)=C(C(N)=O)C(=O)[C@@]3(O)C(O)=C1C2=O : Diameter on PaR5: Pseudomonas aeruginosa = 11

Short answer on PaR5: Pseudomonas aeruginosa for NCC[C@H](O)C(=O)N[C@@H]1C[C@H](N)[C@@H](O[C@H]2O[C@H](CN)[C@@H](O)[C@H](O)[C@H]2O)[C@H](O)[C@H]1O[C@H]1O[C@H](CO)[C@@H](O)[C@H](N)[C@H]1O , Diameter: 27

# lookup: CC(C)(O/N=C(\C(=O)N[C@@H]1C(=O)N2C(C(=O)[O-])=C(C[n+]3ccccc3)CS[C@H]12)c1csc(N)n1)C(=O)O on PaR5: Pseudomonas aeruginosa, Diameter = 32

Sample CCN1CCN(C(=O)N[C@@H](C(=O)N[C@@H]2C(=O)N3[C@@H]2SC(C)(C)[C@@H]3C(=O)O)c2ccccc2)C(=O)C1=O , system: PaR5: Pseudomonas aeruginosa. Its Diameter is 33

###

tested on: MRSA strain having a resistance to the aminoglycosides and fluoroquinolones (SaR3); assay: MIC of the compounds used alone, microdilution in a liquid medium (CLSI); format: cell-based, Staphylococcus aureus; settings: Staphylococcus aureus, MRSA; antibiotic alone (second value of cell); SaR3; read-out: MIC
Assay Endpoint: MIC

Known MIC results, listed for orientation:
[H]/N=C(/N)N[C@H]1[C@H](O)[C@@H](O)[C@H](O[C@@H]2O[C@@H](C)[C@](O)(C=O)[C@H]2O[C@@H]2O[C@@H](CO)[C@H](O)[C@@H](O)[C@@H]2NC)[C@@H](N/C(N)=N\[H])[C@@H]1O [Streptomycin]
4 µg/mL
C[C@H]1COc2c(N3CCN(C)CC3)c(F)cc3c(=O)c(C(=O)O)cn1c23 [Levofloxacin]
8 µg/mL
CC(=O)O[C@H]1C[C@@]2(C)[C@@H](C[C@@H](O)[C@H]3[C@@]4(C)CC[C@@H](O)[C@@H](C)[C@@H]4CC[C@@]32C)/C1=C(\CCC=C(C)C)C(=O)O [Fusidic acid]
0.25 µg/mL
C[C@@H]1O[C@@H]1P(=O)(O)O [Fosfomycin]
16 µg/mL
C[C@@H](O)[C@H]1C(=O)N2C(C(=O)O)=C(SCCN=CN)C[C@H]12 [Imipenem]
0.25 µg/mL
CC(=O)NC[C@H]1CN(c2ccc(N3CCOCC3)c(F)c2)C(=O)O1 [Linezolid]
2 µg/mL

Then this compound:
Reported MRSA strain having a resistance to the aminoglycosides and fluoroquinolones (SaR3) MIC for item CC[C@H]1OC(=O)[C@H](C)[C@@H](O[C@H]2C[C@@](C)(OC)[C@@H](O)[C@H](C)O2)[C@H](C)[C@@H](O[C@@H]2O[C@H](C)C[C@H](N(C)C)[C@H]2O)[C@](C)(O)C[C@@H](C)C(=O)[C@H](C)[C@@H](O)[C@]1(C)O [Erythromycin] was 0.5 µg/mL
